Source of measurements: patent US12433510B2

Experiment: in vivo
Conditions: female, Wistar, rat, iv, 1 mg/kg, AUC Ratio (ISF:serum), 1 mg/kg bolus intravenous

structure_as_smiles | Kp
CN[C@H](CC(C)C)C(=O)N[C@H]1C(=O)N[C@@H](CC(N)=O)C(=O)N[C@H]2C(=O)N[C@H]3C(=O)N[C@H](C(=O)N[C@H](C(=O)O)c4cc(O)cc(O)c4-c4cc3ccc4O)[C@H](O)c3ccc(c(Cl)c3)Oc3cc2cc(c3O[C@@H]2O[C@H](CO)[C@@H](O)[C@H](O)[C@H]2O[C@H]2C[C@](C)(N)[C@H](O)[C@H](C)O2)Oc2ccc(cc2Cl)[C@H]1O | 1.3
